Record type: Kd measurement. Applies to: Tyrosine-protein kinase CSK (Homo sapiens, UniProt P41240)
Active and inactive are the calls of the source.

Solved cases (2 shown):
Cc1nc2cc(-c3nn(C(C)C)c4ncnc(N)c34)ccc2o1 ... > 30 µM (inactive)
Cc1csc(-c2nnc(Nc3ccc(Oc4ncccc4-c4ccnc(N)n4)cc3)c3ccccc23)c1 ... > 30 µM (inactive)

Alright, here's another compound for you.
State measured Kd of the compound CN(C[C@@H]1COCCO1)S(=O)(=O)Nc1ccc2ccc3ncc(-c4cnn(C)c4)cc3c(=O)c2c1 with Tyrosine-protein kinase CSK (Homo sapiens, UniProt P41240).
Sequence (P41240 whole entry): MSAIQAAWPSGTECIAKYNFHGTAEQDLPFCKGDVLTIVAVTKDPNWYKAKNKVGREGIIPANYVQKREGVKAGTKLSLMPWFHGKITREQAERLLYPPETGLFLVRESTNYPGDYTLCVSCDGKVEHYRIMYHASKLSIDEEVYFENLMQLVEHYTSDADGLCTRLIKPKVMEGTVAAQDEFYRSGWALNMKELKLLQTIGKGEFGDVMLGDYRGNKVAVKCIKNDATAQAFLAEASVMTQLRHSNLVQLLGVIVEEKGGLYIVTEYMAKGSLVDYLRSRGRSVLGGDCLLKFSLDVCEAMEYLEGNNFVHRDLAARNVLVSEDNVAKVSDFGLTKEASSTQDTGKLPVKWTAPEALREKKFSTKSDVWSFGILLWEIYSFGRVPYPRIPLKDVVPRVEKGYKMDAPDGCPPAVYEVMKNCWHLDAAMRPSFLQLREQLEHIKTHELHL
> 30 µM (inactive)

* * *

Biological target: Dual specificity testis-specific protein kinase 1 (Homo sapiens, UniProt Q15569); further: in the data inactive means no Kd found up to 30 µM
Sequence (Q15569 whole entry): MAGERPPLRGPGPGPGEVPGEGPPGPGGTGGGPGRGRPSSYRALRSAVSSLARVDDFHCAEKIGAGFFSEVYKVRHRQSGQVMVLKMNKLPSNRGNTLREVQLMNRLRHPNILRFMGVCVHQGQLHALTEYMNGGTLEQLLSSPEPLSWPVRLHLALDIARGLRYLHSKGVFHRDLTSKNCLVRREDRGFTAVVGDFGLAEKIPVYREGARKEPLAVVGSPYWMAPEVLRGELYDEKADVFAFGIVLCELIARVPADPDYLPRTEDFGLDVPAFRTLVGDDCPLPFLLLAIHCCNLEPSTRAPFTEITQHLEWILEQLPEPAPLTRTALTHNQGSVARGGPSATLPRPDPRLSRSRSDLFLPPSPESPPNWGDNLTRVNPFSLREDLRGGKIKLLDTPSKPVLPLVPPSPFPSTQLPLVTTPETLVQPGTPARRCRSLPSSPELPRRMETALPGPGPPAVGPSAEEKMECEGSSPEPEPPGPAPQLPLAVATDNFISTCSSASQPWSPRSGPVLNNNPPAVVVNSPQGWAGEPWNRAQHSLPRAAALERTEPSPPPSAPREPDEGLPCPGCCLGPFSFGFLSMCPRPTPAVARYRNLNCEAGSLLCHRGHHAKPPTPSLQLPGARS
Calls of active or inactive are those of the source.
Outcome (select one): active, inactive

The examples below pair each entry with its known result.
CN1C/C=C/CCOc2cccc(c2)-c2ccnc(n2)Nc2cccc(c2)C1 ... inactive
FC(F)(F)c1ccc(/C=C/c2nc(COc3ccc(CCCCn4ccnn4)cc3)co2)cc1 ... inactive
Cn1cc(-c2cnn3c(N)c(Br)c([C@@H]4CCCNC4)nc23)cn1 ... inactive
CNC(=O)c1cccc2cc(Oc3ccnc4cc(OCC5(N)CC5)c(OC)cc34)ccc12 ... inactive
NC(=O)c1c(OCc2c(F)cc(Br)cc2F)nsc1NC(=O)NCCCCN1CCCC1 ... active
CCS(=O)(=O)c1cccc(-c2cc(C(=O)NC3CCN(C)CC3)c(C)c3[nH]c4ncc(C)cc4c23)c1 ... inactive

Test call for this molecule, please: CN(C[C@@H]1COCCO1)S(=O)(=O)Nc1ccc2ccc3ncc(-c4cnn(C)c4)cc3c(=O)c2c1
inactive

* * *

Molecular target: Cyclin-dependent kinase 17 (Homo sapiens); further: in the data inactive means no Kd found up to 30 µM
Sequence (Q00537 whole entry): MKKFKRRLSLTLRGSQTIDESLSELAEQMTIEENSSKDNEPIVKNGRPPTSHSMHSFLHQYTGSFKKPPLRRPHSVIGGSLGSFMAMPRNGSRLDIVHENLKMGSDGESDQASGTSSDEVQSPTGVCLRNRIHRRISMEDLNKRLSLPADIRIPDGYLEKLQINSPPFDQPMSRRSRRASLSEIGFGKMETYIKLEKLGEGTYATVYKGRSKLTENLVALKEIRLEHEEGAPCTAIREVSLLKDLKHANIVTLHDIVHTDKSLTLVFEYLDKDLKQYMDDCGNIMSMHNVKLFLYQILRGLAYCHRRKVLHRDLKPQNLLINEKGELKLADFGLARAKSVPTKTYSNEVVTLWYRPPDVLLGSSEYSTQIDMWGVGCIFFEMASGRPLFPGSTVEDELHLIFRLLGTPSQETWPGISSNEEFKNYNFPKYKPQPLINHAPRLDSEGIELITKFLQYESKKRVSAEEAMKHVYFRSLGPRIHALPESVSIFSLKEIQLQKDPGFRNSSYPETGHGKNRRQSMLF
The source made the active and inactive calls.
Outcome (select one): active, inactive

The examples below pair each entry with its known result.
CO[C@H]1C[C@@H]2CC[C@@H](C)[C@@](O)(O2)C(=O)C(=O)N2CCCC[C@H]2C(=O)O[C@H]([C@H](C)C[C@@H]2CC[C@@H](O)[C@H](OC)C2)CC(=O)[C@H](C)/C=C(\C)[C@@H](O)[C@@H](OC)C(=O)[C@H](C)C[C@H](C)/C=C/C=C/C=C/1C [SIROLIMUS] ... inactive
O=C(Cc1ccc(-c2ccc(OCCN3CCOCC3)cc2)cn1)NCc1ccccc1 [TIRBANIBULIN] ... inactive
COc1cc([C@@H]2c3cc4c(cc3[C@H](O)[C@H]3COC(=O)[C@@H]23)OCO4)cc(OC)c1OC [AXL-1717] ... inactive
COc1c(OCCCN2CCOCC2)ccc2c1N=C(NC(=O)c1cnc(N)nc1)N1CCN=C21 [COPANLISIB] ... inactive
CN1CCN(CCOc2cc(OC3CCOCC3)c3c(Nc4c(Cl)ccc5c4OCO5)ncnc3c2)CC1 [SARACATINIB] ... inactive

In the following, a different molecule is considered.
Test call for this molecule, please: COc1ncc(-c2ccc3nccc(-c4ccnnc4)c3c2)cc1NS(=O)(=O)c1ccc(F)cc1F [OMIPALISIB]
inactive

* * *

Target: Ribosyldihydronicotinamide dehydrogenase [quinone] (Homo sapiens); further: in the data inactive means no Kd found up to 30 µM
Sequence (P16083 whole entry): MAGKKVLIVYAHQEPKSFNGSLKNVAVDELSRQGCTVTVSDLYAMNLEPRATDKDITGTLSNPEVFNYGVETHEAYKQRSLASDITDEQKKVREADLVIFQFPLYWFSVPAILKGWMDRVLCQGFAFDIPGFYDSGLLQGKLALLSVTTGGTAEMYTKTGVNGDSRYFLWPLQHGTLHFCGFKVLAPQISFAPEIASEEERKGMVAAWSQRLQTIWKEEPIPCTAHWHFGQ
Active and inactive are the calls of the source.
Outcome (select one): active, inactive

Test call for this compound, please: CCS(=O)(=O)c1cccc(-c2cc(C(=O)NC3CCN(C)CC3)c(C)c3[nH]c4ncc(C)cc4c23)c1
active

Test call for this compound, please: Nc1ncnc2c1c(-c1cccc(OCc3ccccc3)c1)cn2[C@H]1C[C@@H](CN2CCC2)C1
inactive

Test call for this compound, please: NC(=O)Nc1cc(-c2cccc(F)c2)sc1C(=O)N[C@H]1CCCNC1
inactive
